Target: T1, in-line fusion protein of human IL-36R extracellular domain and IL1RAcP extracellular domain expressed with … (human; mouse, UniProt Q9HB29 20-337; Q9NPH3 21-359, limits assumed)
T1 construct: not shown: mouse IgG2a Fc
T1 sequence (looked up): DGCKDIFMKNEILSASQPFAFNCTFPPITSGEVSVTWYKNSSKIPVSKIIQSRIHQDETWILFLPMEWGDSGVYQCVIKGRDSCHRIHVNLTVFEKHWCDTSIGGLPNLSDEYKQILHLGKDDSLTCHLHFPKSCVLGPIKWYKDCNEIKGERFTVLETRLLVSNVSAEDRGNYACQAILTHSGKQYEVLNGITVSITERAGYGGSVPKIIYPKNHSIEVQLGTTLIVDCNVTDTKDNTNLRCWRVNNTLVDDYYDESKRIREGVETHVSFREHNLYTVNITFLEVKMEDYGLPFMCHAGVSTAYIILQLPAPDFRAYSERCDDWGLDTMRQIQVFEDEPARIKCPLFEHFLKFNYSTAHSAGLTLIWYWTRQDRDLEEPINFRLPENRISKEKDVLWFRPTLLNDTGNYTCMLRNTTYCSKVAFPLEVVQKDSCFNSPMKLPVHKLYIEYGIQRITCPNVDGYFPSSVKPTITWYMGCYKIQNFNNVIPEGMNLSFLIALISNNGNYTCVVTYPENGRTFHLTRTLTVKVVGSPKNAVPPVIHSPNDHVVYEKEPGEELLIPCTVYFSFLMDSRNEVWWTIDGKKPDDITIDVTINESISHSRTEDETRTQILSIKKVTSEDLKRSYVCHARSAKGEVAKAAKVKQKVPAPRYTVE
Experiment: SPR Biacore 4000, mAb captured on anti-hFc, 37C
Readout Label: koff (s⁻¹)
The reply should be a number in s⁻¹, with the unit left off.

Binder	Unit String	koff
H4H14708P2 (antibody, human IgG4 S228P, kappa, V domains shown, Fully human anti-IL-36R antibody) VH: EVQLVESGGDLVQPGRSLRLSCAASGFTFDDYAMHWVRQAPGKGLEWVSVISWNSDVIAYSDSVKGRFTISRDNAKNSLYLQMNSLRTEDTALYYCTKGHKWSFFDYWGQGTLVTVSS VL: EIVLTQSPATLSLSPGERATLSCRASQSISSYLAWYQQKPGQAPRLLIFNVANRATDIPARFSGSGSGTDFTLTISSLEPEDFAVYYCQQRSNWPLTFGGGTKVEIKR	s⁻¹	0.000253

The reported value for H4H14758P (antibody, human IgG4 S228P, kappa, V domains shown, Fully human anti-IL-36R antibody) VH: EVQLVESGGGLVQPGRSLRLSCAASGFTFDDYAMHWVRQAPGKGLEWVSSVRWNGGIIGYADSVKGRFTISRDNAKNSLYLQMNSLRPEDTALYYCAKDIGDVLTGYYGEYGMDVWGQGTTVTVSS VL: DIQMTQSPSSLSASVGDRVTIACRASQSITTYLNWYQQKPGKAPKLLIYAASSLQSGVPSRFSGSGSGTDFTLTISSLQPEDFATYYCQQSYISPYTFGQGTKLEIKR in terms of koff is 0.000363

Record H4H14731P (antibody, human IgG4 S228P, kappa, V domains shown, Fully human anti-IL-36R antibody) VH: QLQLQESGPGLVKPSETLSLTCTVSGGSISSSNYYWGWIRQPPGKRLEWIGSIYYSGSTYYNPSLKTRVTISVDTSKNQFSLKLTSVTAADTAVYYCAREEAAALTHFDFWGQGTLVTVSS VL: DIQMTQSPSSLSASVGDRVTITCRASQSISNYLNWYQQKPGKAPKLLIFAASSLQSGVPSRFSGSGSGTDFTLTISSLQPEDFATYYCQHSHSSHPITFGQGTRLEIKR . Reported koff: 0.000514

Entry H4H14700P2 (antibody, human IgG4 S228P, kappa, V domains shown, Fully human anti-IL-36R antibody) VH: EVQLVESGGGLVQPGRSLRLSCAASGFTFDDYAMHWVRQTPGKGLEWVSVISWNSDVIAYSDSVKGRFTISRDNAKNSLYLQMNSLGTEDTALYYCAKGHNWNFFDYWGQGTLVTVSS VL: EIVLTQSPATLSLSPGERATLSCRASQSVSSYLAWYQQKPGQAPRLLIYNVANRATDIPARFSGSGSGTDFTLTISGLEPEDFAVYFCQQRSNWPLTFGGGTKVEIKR ; koff = 0.000253

Consider H4H14699P2 (antibody, human IgG4 S228P, kappa, V domains shown, Fully human anti-IL-36R antibody) VH: EVQLVESGGGLVQPGRSLRLSCAASGFTFDDYAIHWVRQAPGKGLEWVSVISWNSDIIGYADSVKGRFTVSRDNAKNSLYLQMNSLRTEDTALYYCAKGYNWNFFDYWGQGTLVTVSS VL: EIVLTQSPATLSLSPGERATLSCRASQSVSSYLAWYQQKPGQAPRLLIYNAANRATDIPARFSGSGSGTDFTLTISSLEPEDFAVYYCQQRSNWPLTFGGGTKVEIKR . Its measured koff is 0.000513

Source listed as patent US20200017592A1.
